# Experimental Target: TRAP protein (Staphylococcus aureus)
# Sequence (Q6GFM2 whole entry): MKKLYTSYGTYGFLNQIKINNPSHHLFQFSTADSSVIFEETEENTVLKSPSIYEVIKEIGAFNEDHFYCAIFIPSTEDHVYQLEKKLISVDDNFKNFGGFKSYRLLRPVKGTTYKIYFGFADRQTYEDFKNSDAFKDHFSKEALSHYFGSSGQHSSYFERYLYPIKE
# Assay type: biochemical
# Parameters: 6xHis (C); made in house; host or cells: Escherichia coli
# Conditions: 20 μM or 200 μM metal ions, 37° C. 30 minutes, FIG. 2
Parameter: in vitro phosphorylation of TRAP protein by using metal ions

| Compound | Result |
| --- | --- |
| [Cl][Cu][Cl] [CuCl2] | in vitro phosphorylated |
| O=S(=O)([O-])[O-].[Fe+2] [FeSO4] | in vitro phosphorylated |
| [Cl-].[Cl-].[Zn+2] [ZnCl2] | in vitro phosphorylated |

Origin of measurements: patent US7927829B2
